Tested on: SF-539 CNS
Experiment: NCI-60 one-dose screen, 48 h (100 = growth as untreated, 0 = no growth, -100 = all killed)
Conditions: 10 µM unless noted
The panel holds about 83,000 compounds, 20% with a hit somewhere; the sample as a whole holds those more often.
Quick rule for you: growth at 70% or higher means 1, lower means 0.

# check: growth of CN=c1ccc2nc3ccc(N)cc3sc-2c1 is greater than or equal to 70% 0

Exam item: decide whether the reported growth for COc1ccc(Cn2c(Br)c3c(c2-c2cc(OC)c(OC)c(OC)c2)CCc2sc(NC(=O)c4ccc(OC)cc4)nc2-3)cc1 is at least 70%. 1

Is the recorded value of growth equal to or greater than 70% for this compound? CC1=C(C(=O)OCC2CCN(C(=O)OC(C)(C)C)CC2)[C@H](c2cccc(C#N)c2)C2=C(CC(C)(C)CC2=O)N1 0

Exam item: decide whether the reported growth for Cc1ccc2nc(NC(=O)CSC(=S)N3CCN(c4ccccc4)CC3)sc2c1 is at least 70%. 1
